Test system: 556581-035-R-J1-PDC complex spheroid growth
Assay: Anticancer human tumor 556581-035-R-J1-PDC patient-derived ovarian carcinoma cell line growth inhibition [Asc]
Settings: second compound 0.316 µM; first compound 3.16 µM; stronger effect = lower value
endpoint: viability, T/C (%)
Give the number; % is assumed, so skip it.

C=CC(=O)N1CCN(c2nc(=O)n(-c3c(C)ccnc3C(C)C)c3nc(-c4c(O)cccc4F)c(F)cc23)C(C)C1 (configuration not stated) + Cc1c(S(C)(=O)=O)c(-c2cc(F)cc(N3CCN(c4ccc(NS(=O)(=O)c5ccc(NC(CCN6CCC(C(=O)OCCCP(=O)(O)O)CC6)CSc6ccccc6)c(S(=O)(=O)C(F)(F)F)c5)cc4)CC3)c2)c(-c2ccc(Cl)cc2)n1C(C)C: 81.8

Let us examine a further case.
Asked: Bench note: what viability, T/C did C=C(F)C(=O)N1CCN(c2nc(OCC3CCCN3C)nc3c2CCN(c2cccc4cccc(Cl)c24)C3)CC1CC#N (configuration not stated) + CNC(C)C(=O)NC1CN(S(=O)(=O)c2cccc(S(=O)(=O)N3CCC4CCC(C(=O)NC(c5ccccc5)c5ccccc5)N4C(=O)C(NC(=O)C(C)NC)C3)c2)CCC2CCC(C(=O)NC(c3ccccc3)c3ccccc3)N2C1=O show?
Given back: 20

* * *

Test system: 556581-035-R-J1-PDC complex spheroid growth
Test: Anticancer human tumor 556581-035-R-J1-PDC cell line growth inhibition [Asc];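 also: spheroids exposed to agents for 7 days before viability read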
Details: curve of compound
Property: IC50; scope: individual compounds

Cn1ncnc1[C@H]1c2n[nH]c(=O)c3cc(F)cc(c23)N[C@@H]1c1ccc(F)cc1: > 0.1 µM
C#Cc1c(F)ccc2cc(O)cc(-c3ncc4c(N5CC6CCC(C5)N6)nc(OCC56CCCN5CC(F)C6)nc4c3F)c12 (centres undefined): > 10 µM
NC1CCC(NC2CC2c2ccccc2)CC1 (centres undefined): > 0.1 µM

Asked: What measured IC50 is associated with NC(=O)C(=Cn1cnc(-c2cc(C(F)(F)F)cc(C(F)(F)F)c2)n1)c1cncnc1 on 556581-035-R-J1-PDC complex spheroid growth?
Given back: > 0.3 µM

Asked: Also C=CC(=O)N1CCN(c2nc(=O)n(-c3c(C)ccnc3C(C)C)c3nc(-c4c(O)cccc4F)c(F)cc23)C(C)C1 (centres undefined) ?
Given back: > 10 µM

Asked: Also CCN1C(C(=O)NC23CCC(C(=O)O)(CC2)CC3)C(c2cccc(Cl)c2F)C2(C(=O)Nc3cc(Cl)ccc32)C12CCCCC2 (centres undefined) ?
Given back: > 3 µM

* * *

Test system: 556581-035-R-J1-PDC complex spheroid growth
Assay: Anticancer human tumor 556581-035-R-J1-PDC cell line growth inhibition [Asc];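 also: spheroids exposed to agents for 7 days before viability read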
Conditions: curve of first compound; second compound 0.1 µM
pIC50: −log10 of the molar value.
Property: pIC50; scope: individual compounds

Would you please look over these solved cases?
CCN1CCN(Cc2ccc(Nc3ncc(F)c(-c4cc(F)c5nc(C)n(C(C)C)c5c4)n3)nc2)CC1 + Cc1c(S(C)(=O)=O)c(-c2cc(F)cc(N3CCN(c4ccc(NS(=O)(=O)c5ccc(NC(CCN6CCC(C(=O)OCCCP(=O)(O)O)CC6)CSc6ccccc6)c(S(=O)(=O)C(F)(F)F)c5)cc4)CC3)c2)c(-c2ccc(Cl)cc2)n1C(C)C: < 6.00
NC(=O)C(=Cn1cnc(-c2cc(C(F)(F)F)cc(C(F)(F)F)c2)n1)c1cncnc1 + Cc1c(S(C)(=O)=O)c(-c2cc(F)cc(N3CCN(c4ccc(NS(=O)(=O)c5ccc(NC(CCN6CCC(C(=O)OCCCP(=O)(O)O)CC6)CSc6ccccc6)c(S(=O)(=O)C(F)(F)F)c5)cc4)CC3)c2)c(-c2ccc(Cl)cc2)n1C(C)C: < 6.52

Let us examine a further case.
Asked: Bench note: what pIC50 did COc1c(OCCCN2CCOCC2)ccc2c3n(c(=NC(=O)c4cnc(N)nc4)nc12)CCN3 + Cc1c(S(C)(=O)=O)c(-c2cc(F)cc(N3CCN(c4ccc(NS(=O)(=O)c5ccc(NC(CCN6CCC(C(=O)OCCCP(=O)(O)O)CC6)CSc6ccccc6)c(S(=O)(=O)C(F)(F)F)c5)cc4)CC3)c2)c(-c2ccc(Cl)cc2)n1C(C)C show?
Given back: 7.33

* * *

Property: viability, T/C; scope: individual compounds
Tested on: 556581-035-R-J1-PDC complex spheroid growth
Experiment: Anticancer human tumor 556581-035-R-J1-PDC cell line growth inhibition [Asc];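 also: spheroids exposed to agents for 7 days before viability read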
Conditions: second compound 0.316 µM; first compound 0.0316 µM; stronger effect = lower value
From the text: Multicellular complex tumor spheroid response to apoptosis pathway targeting inhibitors Alrizomadlin, Pelcitoclax, and Dasminapant in combination with a variety of drugs and investigational agents in selected tumor cell lines […] Compounds. […] If the clinical Cmax for an agent had not been determined, the highest concentration tested was 10 microM. […]
Give the number; % is assumed, so skip it.

Cn1ncnc1[C@H]1c2n[nH]c(=O)c3cc(F)cc(c23)N[C@@H]1c1ccc(F)cc1 + CNC(C)C(=O)NC1CN(S(=O)(=O)c2cccc(S(=O)(=O)N3CCC4CCC(C(=O)NC(c5ccccc5)c5ccccc5)N4C(=O)C(NC(=O)C(C)NC)C3)c2)CCC2CCC(C(=O)NC(c3ccccc3)c3ccccc3)N2C1=O: 77.4

Let us examine a further case.
Asked: What measured viability, T/C is associated with NC1CCC(NC2CC2c2ccccc2)CC1 (configuration not stated) + Cc1c(S(C)(=O)=O)c(-c2cc(F)cc(N3CCN(c4ccc(NS(=O)(=O)c5ccc(NC(CCN6CCC(C(=O)OCCCP(=O)(O)O)CC6)CSc6ccccc6)c(S(=O)(=O)C(F)(F)F)c5)cc4)CC3)c2)c(-c2ccc(Cl)cc2)n1C(C)C on 556581-035-R-J1-PDC complex spheroid growth?
Given back: 80.5

* * *

System: 556581-035-R-J1-PDC complex spheroid growth
Assay: Anticancer human tumor 556581-035-R-J1-PDC cell line growth inhibition [Asc];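 also: spheroids exposed to agents for 7 days before viability read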
Conditions: second compound 1 µM; first compound 0.0949 µM; stronger effect = lower value
Binary call on viability, T/C with cut-off 70%: strictly below means label 1, and equality or higher means label 0.

CCN1C(C(=O)NC23CCC(C(=O)O)(CC2)CC3)C(c2cccc(Cl)c2F)C2(C(=O)Nc3cc(Cl)ccc32)C12CCCCC2 (stereo unspecified) + Cc1c(S(C)(=O)=O)c(-c2cc(F)cc(N3CCN(c4ccc(NS(=O)(=O)c5ccc(NC(CCN6CCC(C(=O)OCCCP(=O)(O)O)CC6)CSc6ccccc6)c(S(=O)(=O)C(F)(F)F)c5)cc4)CC3)c2)c(-c2ccc(Cl)cc2)n1C(C)C: label 0

Asked: Check if viability, T/C falls below 70% for CCN1C(C(=O)NC23CCC(C(=O)O)(CC2)CC3)C(c2cccc(Cl)c2F)C2(C(=O)Nc3cc(Cl)ccc32)C12CCCCC2 (stereo unspecified) + CNC(C)C(=O)NC1CN(S(=O)(=O)c2cccc(S(=O)(=O)N3CCC4CCC(C(=O)NC(c5ccccc5)c5ccccc5)N4C(=O)C(NC(=O)C(C)NC)C3)c2)CCC2CCC(C(=O)NC(c3ccccc3)c3ccccc3)N2C1=O .
Given back: label 1

Asked: Also Cc1nc(N2CCC3(CC2)COC(C)C3N)c(CO)nc1Sc1ccnc(N)c1Cl (stereo unspecified) + CNC(C)C(=O)NC1CN(S(=O)(=O)c2cccc(S(=O)(=O)N3CCC4CCC(C(=O)NC(c5ccccc5)c5ccccc5)N4C(=O)C(NC(=O)C(C)NC)C3)c2)CCC2CCC(C(=O)NC(c3ccccc3)c3ccccc3)N2C1=O ?
Given back: label 1

Asked: Also NC(=O)C(=Cn1cnc(-c2cc(C(F)(F)F)cc(C(F)(F)F)c2)n1)c1cncnc1 + CNC(C)C(=O)NC1CN(S(=O)(=O)c2cccc(S(=O)(=O)N3CCC4CCC(C(=O)NC(c5ccccc5)c5ccccc5)N4C(=O)C(NC(=O)C(C)NC)C3)c2)CCC2CCC(C(=O)NC(c3ccccc3)c3ccccc3)N2C1=O ?
Given back: label 1

Asked: Also Cc1nc(N2CCC3(CC2)COC(C)C3N)c(CO)nc1Sc1ccnc(N)c1Cl (stereo unspecified) + Cc1c(S(C)(=O)=O)c(-c2cc(F)cc(N3CCN(c4ccc(NS(=O)(=O)c5ccc(NC(CCN6CCC(C(=O)OCCCP(=O)(O)O)CC6)CSc6ccccc6)c(S(=O)(=O)C(F)(F)F)c5)cc4)CC3)c2)c(-c2ccc(Cl)cc2)n1C(C)C ?
Given back: label 1

Asked: Also NC(=O)C(=Cn1cnc(-c2cc(C(F)(F)F)cc(C(F)(F)F)c2)n1)c1cncnc1 + Cc1c(S(C)(=O)=O)c(-c2cc(F)cc(N3CCN(c4ccc(NS(=O)(=O)c5ccc(NC(CCN6CCC(C(=O)OCCCP(=O)(O)O)CC6)CSc6ccccc6)c(S(=O)(=O)C(F)(F)F)c5)cc4)CC3)c2)c(-c2ccc(Cl)cc2)n1C(C)C ?
Given back: label 1

* * *

Property: pIC50; scope: individual compounds
System: 556581-035-R-J1-PDC complex spheroid growth
Assay: Anticancer human tumor 556581-035-R-J1-PDC cell line growth inhibition [Asc];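 also: spheroids exposed to agents for 7 days before viability read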
Conditions: curve of first compound; second compound 0.3 µM
pIC50: −log10 of the molar value.

Would you please look over these solved cases?
COc1c(OCCCN2CCOCC2)ccc2c3n(c(=NC(=O)c4cnc(N)nc4)nc12)CCN3 + CCN1C(C(=O)NC23CCC(C(=O)O)(CC2)CC3)C(c2cccc(Cl)c2F)C2(C(=O)Nc3cc(Cl)ccc32)C12CCCCC2: 7.40
C#Cc1c(F)ccc2cc(O)cc(-c3ncc4c(N5CC6CCC(C5)N6)nc(OCC56CCCN5CC(F)C6)nc4c3F)c12 (stereo not drawn) + CCN1C(C(=O)NC23CCC(C(=O)O)(CC2)CC3)C(c2cccc(Cl)c2F)C2(C(=O)Nc3cc(Cl)ccc32)C12CCCCC2: < 5.00

Let us examine a further case.
Asked: Bench note: what pIC50 did NC(=O)C(=Cn1cnc(-c2cc(C(F)(F)F)cc(C(F)(F)F)c2)n1)c1cncnc1 + CCN1C(C(=O)NC23CCC(C(=O)O)(CC2)CC3)C(c2cccc(Cl)c2F)C2(C(=O)Nc3cc(Cl)ccc32)C12CCCCC2 show?
Given back: < 6.52
